- study.system: human V2 receptor (Homo sapiens)
- Sequence (P30518 whole entry): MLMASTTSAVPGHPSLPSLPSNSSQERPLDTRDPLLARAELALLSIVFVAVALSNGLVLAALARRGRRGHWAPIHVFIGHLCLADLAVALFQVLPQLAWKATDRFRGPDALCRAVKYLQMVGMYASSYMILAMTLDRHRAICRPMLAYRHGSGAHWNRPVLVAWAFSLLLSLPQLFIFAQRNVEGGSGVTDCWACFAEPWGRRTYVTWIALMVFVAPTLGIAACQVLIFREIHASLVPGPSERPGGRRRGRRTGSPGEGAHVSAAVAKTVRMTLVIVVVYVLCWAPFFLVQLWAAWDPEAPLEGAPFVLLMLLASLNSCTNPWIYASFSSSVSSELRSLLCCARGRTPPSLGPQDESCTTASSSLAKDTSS
- assay.comment: Cellular in vitro assay for determining vasopressin receptor activity, V2 receptor cell line (CRE-luciferase)
- measurement.parameters: CHO cell line transfected with the human V2 receptor; agonist [Arg8]-vasopressin at EC50 concentration; read-out: IC50 hV2
- Experimental: B-1. Cellular In Vitro Assay for Determining Vasopressin Receptor Activity The identification of agonists and antagonists of the V1a and V2 vasopressin receptors from humans, rats and dogs as well as the quantification of the activity of the compounds of the invention is carried out using recombinant cell lines. […] The bioluminescence of the cell lines is detected using a suitable luminometer [Milligan G, Marshall F, Rees S, Trends in Pharmacological Sciences 17, 235-237 (1996)]. […]
endpoint: IC50 (nM)

[1] O=c1n(Cc2nc(NCCN3CCCCS3(=O)=O)n(-c3ccccc3Cl)n2)nc(-c2ccc(Cl)cc2)n1C[C@H](O)C(F)(F)F
[2] CC(C)(CNc1nc(Cn2nc(-c3ccc(Cl)cc3)n(C[C@H](O)C(F)(F)F)c2=O)nn1-c1ccccc1Cl)C(N)=O
In terms of reported IC50, does 1 or 2 have the smaller number? Selection: enter the item's label.
1
(1: 0.86 nM, 2: 3.8 nM)

Hello, the source for this data is patent US11331314B2, in case you need it.
